- protocol_notes: Tmax in dog at 3 mg/kg, po
- Type: ADME, organism-based, Canis lupus familiaris
- applied_conditions: in vivo
measured_quantity: Tmax (h)

cpd_smiles=OC[C@H]1CCN1c1nc(-c2cnn(C3CCNCC3)c2)cc(C(F)(F)F)n1 obs_value=2.3

----------
- protocol_notes: Metabolic stability in mouse liver microsomes assessed as compound degradation measured after 30 mins
- Format: ADME, Microsome
- applied_conditions: read-out: Drug degradation
Items are presented alongside their recorded metabolised at 0.5 h.
measured_quantity: metabolised at 0.5 h

cpd_smiles=CC(=O)N1CCC(n2cc(-c3cc(C(F)(F)F)c(C#N)c(N4CC[C@@H]4C)n3)cn2)CC1 measured_quantity="metabolised at 0.5 h" obs_value=66%
cpd_smiles=C[C@H]1CCN1c1nc(-c2cnn(CC(=O)N3C[C@H](O)[C@@H](O)C3)c2)cc(C(F)(F)F)c1C#N measured_quantity="metabolised at 0.5 h" obs_value=20%
cpd_smiles=C[C@H]1CCN1c1nc(-c2cnn(CC(=O)NCCO)c2)cc(C(F)(F)F)c1C#N measured_quantity="metabolised at 0.5 h" obs_value=19%
cpd_smiles=C[C@H]1CCN1c1nc(-c2cnn(CCO)c2)cc(C(F)(F)F)c1C#N measured_quantity="metabolised at 0.5 h" obs_value=99%
cpd_smiles=C[C@H]1CCN1c1nc(-c2cnn(C3CNC3)c2)cc(C(F)(F)F)c1C#N measured_quantity="metabolised at 0.5 h" obs_value=13%
cpd_smiles=C[C@H]1CCN1c1nc(-c2cnn(CC(=O)N(CCO)CCO)c2)cc(C(F)(F)F)c1C#N measured_quantity="metabolised at 0.5 h" obs_value=30%
cpd_smiles=C[C@H]1CCN1c1nc(-c2cnn(C3CCNCC3)c2)cc(C(F)(F)F)c1C#N measured_quantity="metabolised at 0.5 h" obs_value=24%
cpd_smiles=C[C@H]1CCN1c1nc(-c2cn[nH]c2)cc(C(F)(F)F)c1C#N measured_quantity="metabolised at 0.5 h" obs_value=100%
cpd_smiles=C[C@H]1CCN1c1nc(-c2cnn(CC(=O)N3C[C@@H](O)[C@H](O)C3)c2)cc(C(F)(F)F)c1C#N measured_quantity="metabolised at 0.5 h" obs_value=13%
